Tested on: MCF7R
Test: Growth inhibition by peptide-doxorubicin conjugates (MTT, 48 hours)
Format: cell-based
Details: Homo sapiens, read-out: molar concentration giving 50% inhibition of the growth of the cells, resistant to doxorubicin
pIC50: −log10 of the molar value.

# entry_smiles, pIC50
measured = [
    ("COc1cccc2c1C(=O)c1c(O)c3c(c(O)c1C2=O)C[C@@](O)(C(=O)CO)C[C@@H]3O[C@H]1C[C@H](N)[C@H](O)[C@H](C)O1", 3.70),
]

====

Listed here: items and their measured EC50.
Assay: ELISA fixation of biotinylated peptides on sensitized plates
Assay type: binding
Details: Table 4; read-out: avidity: quantity of peptides necessary to obtain 50% fixation, Chondroitin A

# substance, value_operator, EC50 [nM]
rows = [
    ("VKRGLKLVKRGLKL [compound 2]", "=", 550),
    ("VKRGLKL [compound 1]", ">", 100000),
    ("VRRSGRVVVPAAPRNRD [compound 8]", ">", 150000),
    ("RKGFYKRKQCKP [compound 20]", "=", 60),
    ("RGVRPRVTRMDVRHVRPRVTRMDV [compound 15]", "=", 200),
    ("KSRKKSRK [compound 19]", ">", 74000),
    ("TYYSDTVKGRFTRQKYNKRA [compound 6]", "=", 240),
    ("VKRGLKLTYYSDTVKGRFTRQYNKRA [compound 7]", "=", 60),
    ("VKRGLKLVRRSGRVVVPAAPRNRD [compound 9]", "=", 17),
    ("GRPRESGKKRKRKRLKP [compound 21]", "=", 120),
    ("RHVRPRVTRMDVVKRGLKLRHVRPRVTRMDV [compound 16]", "=", 12),
    ("RQKYNKRAMDY [compound 4]", "=", 5600),
    ("VKRGLKLVKRGLKLVKRGLKL [compound 3]", "=", 37),
    ("VKRGLKLRQKYNKRAMDY [compound 5]", "=", 130),
    ("LRKRLLRD [compound 17]", ">", 150000),
]
